Cited source for all entries: paper PMC11091220

tgt: ESR1-Nanoluciferase fusion protein (Homo sapiens, UniProt P03372)
Sequence (P40337 whole entry, the tested form may be a part): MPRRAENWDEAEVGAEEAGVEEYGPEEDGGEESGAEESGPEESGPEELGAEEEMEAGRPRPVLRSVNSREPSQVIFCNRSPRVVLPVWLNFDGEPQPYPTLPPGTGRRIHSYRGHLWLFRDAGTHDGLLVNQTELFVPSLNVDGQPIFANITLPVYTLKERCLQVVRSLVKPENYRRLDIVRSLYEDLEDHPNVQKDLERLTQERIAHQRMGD
Sequence (P03372 whole entry, the tested form may be a part): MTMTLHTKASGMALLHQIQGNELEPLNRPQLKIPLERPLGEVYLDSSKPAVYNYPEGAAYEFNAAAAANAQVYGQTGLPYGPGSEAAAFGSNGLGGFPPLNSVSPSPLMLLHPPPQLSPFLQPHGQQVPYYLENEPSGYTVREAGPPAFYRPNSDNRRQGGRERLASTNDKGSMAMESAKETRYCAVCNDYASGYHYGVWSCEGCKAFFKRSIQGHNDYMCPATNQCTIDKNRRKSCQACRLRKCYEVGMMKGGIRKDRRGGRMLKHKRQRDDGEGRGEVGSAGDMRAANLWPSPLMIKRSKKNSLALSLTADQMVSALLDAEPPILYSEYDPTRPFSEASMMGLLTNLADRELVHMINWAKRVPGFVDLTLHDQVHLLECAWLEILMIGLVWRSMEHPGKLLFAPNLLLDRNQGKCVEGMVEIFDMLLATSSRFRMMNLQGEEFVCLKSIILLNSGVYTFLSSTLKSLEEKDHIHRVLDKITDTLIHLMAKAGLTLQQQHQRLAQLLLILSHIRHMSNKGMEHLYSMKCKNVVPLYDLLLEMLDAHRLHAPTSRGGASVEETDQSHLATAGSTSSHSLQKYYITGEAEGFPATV
measurement-protocol: ERα nanoluciferase degradation assay
Assay type: cell-based
reported-conditions: Table 1 source data; mean; read-out: ERa nanocluciferase degradation DC50 (nM), Mean IC50
experimental-endpoint: IC50

// known answers, use as guide
Cc1ncsc1-c1ccc(CNC(=O)[C@@H]2C[C@@H](O)CN2C(=O)[C@@H](NC(=O)COCCOCCOCCOc2cc(F)c([C@@H]3c4[nH]c5ccccc5c4C[C@@H](C)N3CC(C)(C)F)c(F)c2)C(C)(C)C)cc1 3.1 nM
Cc1ncsc1-c1ccc(CNC(=O)[C@@H]2C[C@@H](O)CN2C(=O)[C@@H](NC(=O)COCCN2CCN(CCOc3cc(F)c([C@@H]4c5[nH]c6ccccc6c5C[C@@H](C)N4CC(C)(C)F)c(F)c3)CC2)C(C)(C)C)cc1 46 nM
Cc1ncsc1-c1ccc(CNC(=O)[C@@H]2C[C@H](O)CN2C(=O)[C@@H](NC(=O)COCCCOCCCOc2cc(F)c([C@@H]3c4[nH]c5ccccc5c4C[C@@H](C)N3CC(C)(C)F)c(F)c2)C(C)(C)C)cc1 > 3000 nM

Moving on to the next compound.
Asked: Which measured IC50 value corresponds to Cc1ncsc1-c1ccc(CNC(=O)[C@@H]2C[C@@H](O)CN2C(=O)[C@@H](NC(=O)COCCCOCCCOc2cc(F)c([C@@H]3c4[nH]c5ccccc5c4C[C@@H](C)N3CC(C)(C)F)c(F)c2)C(C)(C)C)cc1 ?
Given back: 15 nM

* * *

tgt: ERα (Homo sapiens, UniProt P03372)
Construct: endogenous in cells; host or cells: MCF7 (also MCF7 engineered to express Cas9)
measurement-protocol: ERα high throughput imaging degradation assay in MCF7 cells
Format: cell-based
reported-conditions: MCF7 cells, 20 to 24 hours
experimental-endpoint: DC50 (nM)
# value in nM; strip the unit string

compound	tgt	DC50, nM
Cc1ncsc1-c1ccc(CNC(=O)[C@@H]2C[C@@H](O)CN2C(=O)[C@@H](NC(=O)COCCCc2cccc(COc3cc(F)c([C@@H]4c5[nH]c6ccccc6c5C[C@@H](C)N4CC(C)(C)F)c(F)c3)c2)C(C)(C)C)cc1 [Compound 14]	ERα (Homo sapiens, UniProt P03372)	4.9

Next:
Asked: Bench note: what DC50 did Cc1ncsc1-c1ccc(CNC(=O)[C@@H]2C[C@@H](O)CN2C(=O)[C@@H](NC(=O)COCCOCCOCCOCCOc2cc(F)c([C@@H]3c4[nH]c5ccccc5c4C[C@@H](C)N3CC(C)(C)F)c(F)c2)C(C)(C)C)cc1 [Compound 4] show?
Given back: 3.2

* * *

measurement-protocol: Mouse pharmacokinetics, i.v./oral and enabling formulations
Type: in vivo
reported-conditions: mouse, plasma, iv, 0.5 mg/kg, IV 0.5 mg/kg; 0.5 h; read-out: Plasma conc (total)
experimental-endpoint: concentration at 0.5 h (nM)
Write it as a number; the unit nM goes unstated.

Asked: Name the reported concentration at 0.5 h value associated with the molecule Cc1ncsc1-c1ccc(CNC(=O)[C@@H]2C[C@@H](O)CN2C(=O)[C@@H](NC(=O)COCCCOCCCOc2cc(F)c([C@@H]3c4[nH]c5ccccc5c4C[C@@H](C)N3CC(C)(C)F)c(F)c2)C(C)(C)C)cc1
Given back: 89

* * *

tgt: ERα (Homo sapiens, UniProt P03372)
Construct: endogenous in cells; host or cells: MCF7 (also MCF7 engineered to express Cas9)
measurement-protocol: ERα high throughput imaging degradation assay in MCF7 cells
Format: cell-based
reported-conditions: MCF7 cells, 20 to 24 hours
Documented DC50 across a set of compounds
Please answer in the form of a number followed by its unit of measurement.

Here is how some compounds turned out for DC50.
Cc1ncsc1-c1ccc(CNC(=O)[C@@H]2C[C@@H](O)CN2C(=O)[C@@H](NC(=O)COCCCOCCOc2cc(F)c([C@@H]3c4[nH]c5ccccc5c4C[C@@H](C)N3CC(C)(C)F)c(F)c2)C(C)(C)C)cc1 0.4 nM
C[C@@H]1Cc2c([nH]c3ccccc23)[C@@H](c2c(F)cc(OCCC(=O)O)cc2F)N1CC(C)(C)F 0.5 nM
Cc1ncsc1-c1ccc(CNC(=O)[C@@H]2C[C@@H](O)CN2C(=O)[C@@H](NC(=O)COCCN2CCN(CCOc3cc(F)c([C@@H]4c5[nH]c6ccccc6c5C[C@@H](C)N4CC(C)(C)F)c(F)c3)CC2)C(C)(C)C)cc1 0.5 nM
Cc1ncsc1-c1ccc(CNC(=O)[C@@H]2C[C@@H](O)CN2C(=O)[C@@H](NC(=O)COCCOCCCCOc2cc(F)c([C@@H]3c4[nH]c5ccccc5c4C[C@@H](C)N3CC(C)(C)F)c(F)c2)C(C)(C)C)cc1 0.5 nM
Cc1ncsc1-c1ccc(CNC(=O)[C@@H]2C[C@@H](O)CN2C(=O)[C@@H](NC(=O)COCCOc2cc(F)c([C@@H]3c4[nH]c5ccccc5c4C[C@@H](C)N3CC(C)(C)F)c(F)c2)C(C)(C)C)cc1 0.6 nM

Asked: Given the entry Cc1ncsc1-c1ccc(CNC(=O)[C@@H]2C[C@@H](O)CN2C(=O)[C@@H](NC(=O)COCCOCCOc2cc(F)c([C@@H]3c4[nH]c5ccccc5c4C[C@@H](C)N3CC(C)(C)F)c(F)c2)C(C)(C)C)cc1 , report its measured DC50.
Given back: 0.8 nM

Asked: Can you look up the measured DC50 of Cc1ncsc1-c1ccc(CNC(=O)[C@@H]2C[C@@H](O)CN2C(=O)[C@@H](NC(=O)COCc2cccc(CCCOc3cc(F)c([C@@H]4c5[nH]c6ccccc6c5C[C@@H](C)N4CC(C)(C)F)c(F)c3)c2)C(C)(C)C)cc1 for me?
Given back: 14 nM

* * *

measurement-protocol: Mouse pharmacokinetics, i.v./oral and enabling formulations
Type: in vivo
reported-conditions: mouse, plasma, po, 1 mg/kg, Oral 1 mg/kg in SF; 4 h; read-out: Plasma conc (total)
experimental-endpoint: concentration at 4 h (nM)
Give the value in nM but do not write nM after it.

Asked: Which value of concentration at 4 h has been reported for Cc1ncsc1-c1ccc(CNC(=O)[C@@H]2C[C@@H](O)CN2C(=O)[C@@H](NC(=O)COCCCOCCCOc2cc(F)c([C@@H]3c4[nH]c5ccccc5c4C[C@@H](C)N3CC(C)(C)F)c(F)c2)C(C)(C)C)cc1 in the records?
Given back: 2.98

* * *

Entries annotated with measured Dmax
tgt: ERα (Homo sapiens)
Construct: endogenous in cells; host or cells: MCF7 (also MCF7 engineered to express Cas9)
measurement-protocol: ERα high throughput imaging degradation assay in MCF7 cells
Type: cell-based
reported-conditions: MCF7; Table S4 source data; read-out: ERa degradation, Dmax (%)
Experimental: Cells were fixed, permeabilised and stained with anti-ERα (rabbit clone SP1, Thermo) and anti-PR (mouse clone PgR 636, Dako) antibodies followed by secondary AlexaFluor 594 goat anti-rabbit and AlexaFluor 488 goat anti-mouse IgG antibodies. Imaging was using the Thermo Cellinsight scanner and average fluorescence intensity was analysed using Genedata.
Return type: number; implicit unit %.

Asked: Quick check: Dmax on ERα (Homo sapiens), item Cc1ncsc1-c1ccc(CNC(=O)[C@@H]2C[C@@H](O)CN2C(=O)[C@@H](NC(=O)COCCCc2cccc(COc3cc(F)c([C@@H]4c5[nH]c6ccccc6c5C[C@@H](C)N4CC(C)(C)F)c(F)c3)c2)C(C)(C)C)cc1 ?
Given back: 103

Asked: What reported Dmax corresponds to Cc1ncsc1-c1ccc(CNC(=O)[C@@H]2C[C@@H](O)CN2C(=O)[C@@H](NC(=O)COCCCOCCOc2cc(F)c([C@@H]3c4[nH]c5ccccc5c4C[C@@H](C)N3CC(C)(C)F)c(F)c2)C(C)(C)C)cc1 on ERα (Homo sapiens)?
Given back: 100

Asked: What Dmax appears in the records for this compound with ERα (Homo sapiens)? Cc1ncsc1-c1ccc(CNC(=O)[C@@H]2C[C@@H](O)CN2C(=O)[C@@H](NC(=O)COCc2cccc(CCCOc3cc(F)c([C@@H]4c5[nH]c6ccccc6c5C[C@@H](C)N4CC(C)(C)F)c(F)c3)c2)C(C)(C)C)cc1
Given back: 106

Asked: # get_value(readout= Dmax, system= ERα (Homo sapiens)) for Cc1ncsc1-c1ccc(CNC(=O)[C@@H]2C[C@@H](O)CN2C(=O)[C@@H](NC(=O)C2(OCCCOCCCOc3cc(F)c([C@@H]4c5[nH]c6ccccc6c5C[C@@H](C)N4CC(C)(C)F)c(F)c3)CC2)C(C)(C)C)cc1
Given back: 96

* * *

Catalogue of molecules with associated IC50
tgt: recombinant human ERα ligand binding domain (LBD) (Homo sapiens, UniProt P03372)
Construct: purchased Invitrogen PV4543
measurement-protocol: ERα binding assay (LanthaScreen TR-FRET competition)
reported-conditions: mean ± s.d.; read-out: ERα binding IC50
Method: The ability of compounds to bind to isolated ERα Ligand binding domain (ERα–LBD (GST)) was assessed in competition assays using a LanthaScreenTM Time-Resolved Fluorescence Resonance Energy Transfer (TR-FRET) detection end-point. For the LanthaScreen TR-FRET endpoint, a suitable fluorophore (Fluormone ES2, Product code P2645) and recombinant human ERα ligand binding domain (LBD) (product code PV4543) were purchased from Invitrogen and used to measure compound binding. […]
# value in nM; strip the unit string

molecule	IC50 (nM)
Cc1ncsc1-c1ccc(CNC(=O)[C@@H]2C[C@@H](O)CN2C(=O)[C@@H](NC(=O)COCCOCCOCCOCCOc2cc(F)c([C@@H]3c4[nH]c5ccccc5c4C[C@@H](C)N3CC(C)(C)F)c(F)c2)C(C)(C)C)cc1 [Compound 4]	6.3

Asked: Which IC50 value is on record for Cc1ncsc1-c1ccc(CNC(=O)[C@@H]2C[C@@H](O)CN2C(=O)[C@@H](NC(=O)COCCN2CCN(CCOc3cc(F)c([C@@H]4c5[nH]c6ccccc6c5C[C@@H](C)N4CC(C)(C)F)c(F)c3)CC2)C(C)(C)C)cc1 [Compound 6] ?
Given back: 1.3

Asked: Quick check: IC50 of Cc1ncsc1-c1ccc(CNC(=O)[C@@H]2C[C@@H](O)CN2C(=O)[C@@H](NC(=O)COCCOCCOc2cc(F)c([C@@H]3c4[nH]c5ccccc5c4C[C@@H](C)N3CC(C)(C)F)c(F)c2)C(C)(C)C)cc1 [Compound 2] ?
Given back: 0.6
